recorded metric: IC50 (µM)
Just the number in µM, nothing appended.

Query :: Param readout= IC50; system= hHint1 (Homo sapiens (Human), UniProt P49773); entry= Nc1nc2c(ncn2[C@@H]2O[C@H](COC(=O)NCCc3c[nH]c4ccccc34)[C@@H](O)[C@H]2O)c(=O)[nH]1 [Compound 3, guanosine-5′-tryptamine carbamate] ; returns value.
Result :: 25.5

* * *

- assay name: Solubility (aqueous buffers, water, DMSO)
- Assay type: physicochemical
- assay setup: aqueous buffers
recorded metric: stock solutions easily prepared in aqueous buffers

compound	result
Nc1nc2c(ncn2[C@@H]2O[C@H](COS(=O)(=O)NC(=O)CCc3c[nH]c4ccccc34)C(O)[C@@H]2O)c(=O)[nH]1 (stereo partly shown)	up to 5 mM
Nc1nc2c(ncn2[C@@H]2O[C@H](CNS(=O)(=O)NC(=O)CCc3c[nH]c4ccccc34)C(O)C2O)c(=O)[nH]1 (stereo partly shown)	up to 5 mM
CCCC(=O)NS(=O)(=O)OC[C@H]1O[C@@H](n2cnc3c(=O)[nH]c(N)nc32)C(O)C1O (stereo partly shown)	up to 5 mM
O=C(CCc1c[nH]c2ccccc12)NS(=O)(=O)OC[C@H]1O[C@@H](n2cnc3c2ncn2ccnc32)[C@@H](O)C1O (stereo partly shown)	≤ 20 mM
